- System: HCC1937
- Measurement Notes: normalised viability (% of control), CellTiter-Blue; higher = more viable cells (about 100 = DMSO control)
- Condition Set: 10000 nM; incubation time: 72 h
Measured Quantity: normalised viability (%)
One number for each entry, in %.

Give me normalised viability for each of these compounds, listed below.
1. Cn1cncc1[C@@](N)(c1ccc(Cl)cc1)c1ccc2c(c1)c(-c1cccc(Cl)c1)cc(=O)n2C
2. CCCCCCCCc1ccc(CCC(N)(CO)CO)cc1
3. O=C(O)CCCc1ccc(N(CCCl)CCCl)cc1
4. CC[C@]1(O)C[C@H]2CN(CCc3c([nH]c4ccccc34)[C@@](C(=O)OC)(c3cc4c(cc3OC)N(C=O)[C@H]3[C@@](O)(C(=O)OC)[C@H](OC(C)=O)[C@]5(CC)C=CCN6CC[C@]43[C@@H]65)C2)C1
5. CN(C)CCN1C(=O)c2cccc3cc(N)cc(c23)C1=O [Amonafide]

// result
1. 32.3
2. 2.06
3. 52.8
4. 16.1
5. 29.5

Values from the supplement of paper PMC4862054
